tested on: OVCAR-3; assay: NCI tumour cell line growth inhibition, 48 h
Structures can show the parent of a compound that is named as a salt. The source made the active and inactive calls. No stated cut-off is given here; in the data, active = GI50 up to about 1.1 µM and inactive = higher.
The reply should be one of these categories: active, inactive

Short answer needed: outcome of this test for CC(=O)NNc1nc(C)c(C(/C=C/c2ccc(Cl)cc2)=N\N=C(N)N)s1 ?
inactive

Short answer needed: outcome of this test for NC(=O)N/N=C1/c2ccccc2-n2nccc21 ?
inactive

Short answer needed: outcome of this test for COc1ccc(N2N=NN(C(C)C)/C2=C(/Cl)c2nnnn2-c2ccc(OC)cc2)cc1 ?
inactive

Short answer needed: outcome of this test for CC(=O)OCc1cc(=O)n2c([nH]c3ccccc32)c1C#N ?
inactive

Short answer needed: outcome of this test for CCN(CC)C(=O)C1=C(C)NC(C)=C(C(=O)N(CC)CC)C1 ?
inactive

Short answer needed: outcome of this test for COc1cc(C2c3cc4c(cc3C(=O)C3CCC(=O)N32)OCO4)cc(OC)c1O (stereo not drawn) ?
inactive

Short answer needed: outcome of this test for CCOC(=O)c1nc2ccc(OC)cc2c2c1Cc1ccccc1-2 ?
inactive

Short answer needed: outcome of this test for CN(C(=O)C12C3C4C1C1C2C3C41C(=O)C(C)(C)C)C(C)(C)C (stereo not drawn) ?
inactive

Short answer needed: outcome of this test for C=C1C[C@@H]2CC[C@@]34C[C@H]5O[C@H]6[C@@H](O3)[C@H]3O[C@H](CC[C@@H]3O[C@H]6[C@H]5O4)CC(=O)C[C@@H]3[C@@H](OC)[C@@H](C[C@H](O)CN)O[C@H]3C[C@H]3O[C@@H](CC[C@@H]1O2)C[C@@H](C)C3=C [ERIBULIN MESYLATE] ?
active

Short answer needed: outcome of this test for CCCCCCCCCCCCCCCCOP(=O)(O)OCC(N)C(=O)O (stereo not drawn) ?
inactive

Short answer needed: outcome of this test for Nc1nc(F)nc2c1ncn2C1OC(COP(=O)(O)O)C(O)C1O (stereo not drawn) ?
inactive

Short answer needed: outcome of this test for O=C(Nc1nnc(-c2ccc(Cl)cc2)o1)C(SC(=S)N1CCCCC1)c1ccccc1 (stereo not drawn) ?
inactive

Short answer needed: outcome of this test for C=CCOC(=O)CC[N+]1=CCC(c2ccccc2)(c2ccccc2)O1 ?
inactive

Short answer needed: outcome of this test for CC1=NN(C(=O)CC(=O)NC(=O)/C=C\c2ccccc2)C(=O)C1/N=N/c1ccc([N+](=O)[O-])cc1 (stereo not drawn) ?
inactive

Short answer needed: outcome of this test for Oc1cc(-c2cccc(Cl)c2)nc2ncccc12 ?
active

Short answer needed: outcome of this test for CC(=O)NC1=C(C)C(=O)c2c(nc3n2CCC3OC(=O)CCl)C1=O (stereo not drawn) ?
inactive

Short answer needed: outcome of this test for ON[C@@H]1C=C[C@H](n2cnc3c(NC4CC4)ncnc32)C1 ?
inactive

Short answer needed: outcome of this test for CC1(c2ccc(F)cc2)CC(c2ccc(F)cc2)=C(C#N)C(=C(C#N)C#N)N1 (stereo not drawn) ?
inactive

Short answer needed: outcome of this test for C=C1CCC(CC[C@@H]2CC[C@]3(OC2)O[C@@]2(O)CC[C@]3(C)OC2(C)C)C(C)(C)[C@H]1C/C=C1/C(=O)OC[C@@H]1O (stereo partly drawn) ?
inactive

Short answer needed: outcome of this test for O=C(O)C[n+]1cn(NC(=O)Cc2ccccc2)cn1 ?
inactive

Short answer needed: outcome of this test for CN1CCc2nc(N)nc(-c3nc(N)nc4c3CN(C)CC4)c2C1 ?
inactive

Short answer needed: outcome of this test for CC(=O)NC1C(CO)O[C@@H]2OC(C)(C)O[C@H]12 (stereo partly drawn) ?
inactive

Short answer needed: outcome of this test for Cn1c2cn[nH]c(=O)c2c2ccc3ccccc3c21 ?
inactive
